Recorded ED50, one value per entry.
# Tested on: pentobarbital sleep
# experiment: Prolongation of pentobarbital sleep
# Type: in vivo
# test-context: Mus musculus, po, mice, p.o., read-out: ED50, increase in sleeping (prolongation of pentobarbital sleep)
assay-endpoint: ED50 (mg/kg)

molecule="COCCNCC1=Nc2ccc(Cl)cc2S(=O)(c2ccccc2)=N1 (stereo not shown)" unit_annotation=mg/kg reading_qualifier== measured_value=58
molecule="O=S1(c2ccc(Cl)cc2)=NC(CNCCO)=Nc2ccccc21 (stereo not shown)" unit_annotation=mg/kg reading_qualifier== measured_value=9
molecule="CCCN(CCC)CC1=Nc2ccccc2S(=O)(c2ccccc2)=N1 (stereo not shown)" unit_annotation=mg/kg reading_qualifier== measured_value=3.1
molecule="CCCN(CCC)CC1=Nc2ccc(Cl)cc2S(=O)(c2ccccc2)=N1 (stereo not shown)" unit_annotation=mg/kg reading_qualifier== measured_value=22
molecule="O=S1(c2ccccc2)=NC(CN2CCOCC2)=Nc2ccc(Cl)cc21 (stereo not shown)" unit_annotation=mg/kg reading_qualifier== measured_value=46
molecule="CCCN(CCC)CC1=Nc2ccc(Cl)cc2S(=O)(c2ccc(Cl)cc2)=N1 (stereo not shown)" unit_annotation=mg/kg reading_qualifier== measured_value=16
molecule="CCCN(CCC)CC1=Nc2cccc(Cl)c2S(=O)(c2ccc(Cl)cc2)=N1 (stereo not shown)" unit_annotation=mg/kg reading_qualifier== measured_value=20
molecule="O=S1(c2ccccc2)=NC(CNCCO)=Nc2ccc(Cl)cc21 (stereo not shown)" unit_annotation=mg/kg reading_qualifier== measured_value=15
molecule="O=S1(c2ccccc2)=NC(CN2CCCC2)=Nc2ccc(Cl)cc21 (stereo not shown)" unit_annotation=mg/kg reading_qualifier== measured_value=38
molecule="O=S1(c2ccccc2)=NC(CNCCO)=Nc2ccccc21 (stereo not shown)" unit_annotation=mg/kg reading_qualifier== measured_value=2
molecule="COCCN(C)CC1=Nc2ccc(Cl)cc2S(=O)(c2ccccc2)=N1 (stereo not shown)" unit_annotation=mg/kg reading_qualifier== measured_value=28
molecule="CCNCC1=Nc2ccc(Cl)cc2S(=O)(c2ccccc2)=N1 (stereo not shown)" unit_annotation=mg/kg reading_qualifier== measured_value=25
molecule="CCCN(CCC)CC1=Nc2ccc(C)cc2S(=O)(c2ccc(Cl)cc2)=N1 (stereo not shown)" unit_annotation=mg/kg reading_qualifier=> measured_value=250
molecule="CN(C)CC1=Nc2ccc(Cl)cc2S(=O)(c2ccccc2)=N1 (stereo not shown)" unit_annotation=mg/kg reading_qualifier== measured_value=16
molecule="CCCN(CCC)CC1=Nc2cc(C)ccc2S(=O)(c2ccccc2)=N1 (stereo not shown)" unit_annotation=mg/kg reading_qualifier== measured_value=8.5
molecule="CCCN(CCC)CC1=Nc2ccccc2S(=O)(c2ccc(N)cc2)=N1 (stereo not shown)" unit_annotation=mg/kg reading_qualifier== measured_value=8
molecule="CCN(CC)CC1=Nc2ccc(Cl)cc2S(=O)(c2ccccc2)=N1 (stereo not shown)" unit_annotation=mg/kg reading_qualifier== measured_value=46
molecule="O=S1(c2ccccc2)=NC(CN2CCCCC2)=Nc2ccc(Cl)cc21 (stereo not shown)" unit_annotation=mg/kg reading_qualifier== measured_value=34
molecule="CCCN(CCC)CC1=Nc2ccccc2S(=O)(c2ccc(Cl)cc2)=N1 (stereo not shown)" unit_annotation=mg/kg reading_qualifier== measured_value=2

###

# Test system: spontaneous mobility
# experiment: Decrease of spontaneous mobility
# Format: in vivo
# test-context: Mus musculus, po; mice
assay-endpoint: ED50 (mg/kg)

compound="COCCN(C)CC1=Nc2ccc(Cl)cc2S(=O)(c2ccccc2)=N1 (centres unmarked)" target_under_test="spontaneous mobility" unit_annotation=mg/kg reading_qualifier=> measured_value=250
compound="COCCNCC1=Nc2ccc(Cl)cc2S(=O)(c2ccccc2)=N1 (centres unmarked)" target_under_test="spontaneous mobility" unit_annotation=mg/kg reading_qualifier=> measured_value=250
compound="O=S1(c2ccc(Cl)cc2)=NC(CNCCO)=Nc2ccccc21 (centres unmarked)" target_under_test="spontaneous mobility" unit_annotation=mg/kg reading_qualifier== measured_value=46
compound="O=S1(c2ccccc2)=NC(CN2CCOCC2)=Nc2ccc(Cl)cc21 (centres unmarked)" target_under_test="spontaneous mobility" unit_annotation=mg/kg reading_qualifier=> measured_value=250
compound="CN(C)CC1=Nc2ccc(Cl)cc2S(=O)(c2ccccc2)=N1 (centres unmarked)" target_under_test="spontaneous mobility" unit_annotation=mg/kg reading_qualifier== measured_value=96

###

# Tested on: spontaneous mobility
# experiment: Decrease of spontaneous mobility
# Assay type: in vivo
# test-context: Mus musculus, po; mice
Entries and their measured ED50 follow.
assay-endpoint: ED50 (mg/kg)

compound="O=S1(c2ccccc2)=NC(CNCCO)=Nc2ccc(Cl)cc21 (centres unmarked)" assay_endpoint=ED50 reading_qualifier== measured_value=23
compound="CCN(CC)CC1=Nc2ccc(Cl)cc2S(=O)(c2ccccc2)=N1 (centres unmarked)" assay_endpoint=ED50 reading_qualifier== measured_value=78
compound="CCCN(CCC)CC1=Nc2ccccc2S(=O)(c2ccccc2)=N1 (centres unmarked)" assay_endpoint=ED50 reading_qualifier== measured_value=186
compound="CCCN(CCC)CC1=Nc2ccccc2S(=O)(c2ccc(Cl)cc2)=N1 (centres unmarked)" assay_endpoint=ED50 reading_qualifier== measured_value=31
compound="CCCN(CCC)CC1=Nc2ccc(Cl)cc2S(=O)(c2ccc(Cl)cc2)=N1 (centres unmarked)" assay_endpoint=ED50 reading_qualifier== measured_value=28
compound="CCCN(CCC)CC1=Nc2ccc(C)cc2S(=O)(c2ccc(Cl)cc2)=N1 (centres unmarked)" assay_endpoint=ED50 reading_qualifier== measured_value=31
compound="CCCN(CCC)CC1=Nc2ccccc2S(=O)(c2ccc(N)cc2)=N1 (centres unmarked)" assay_endpoint=ED50 reading_qualifier=> measured_value=250
compound="CCCN(CCC)CC1=Nc2cc(C)ccc2S(=O)(c2ccccc2)=N1 (centres unmarked)" assay_endpoint=ED50 reading_qualifier== measured_value=76
compound="O=S1(c2ccccc2)=NC(CN2CCCC2)=Nc2ccc(Cl)cc21 (centres unmarked)" assay_endpoint=ED50 reading_qualifier== measured_value=70
compound="O=S1(c2ccccc2)=NC(CN2CCCCC2)=Nc2ccc(Cl)cc21 (centres unmarked)" assay_endpoint=ED50 reading_qualifier== measured_value=84
compound="CCNCC1=Nc2ccc(Cl)cc2S(=O)(c2ccccc2)=N1 (centres unmarked)" assay_endpoint=ED50 reading_qualifier== measured_value=240
compound="O=S1(c2ccccc2)=NC(CNCCO)=Nc2ccccc21 (centres unmarked)" assay_endpoint=ED50 reading_qualifier=> measured_value=250
compound="CCCN(CCC)CC1=Nc2ccc(Cl)cc2S(=O)(c2ccccc2)=N1 (centres unmarked)" assay_endpoint=ED50 reading_qualifier== measured_value=98
compound="CCCN(CCC)CC1=Nc2cccc(Cl)c2S(=O)(c2ccc(Cl)cc2)=N1 (centres unmarked)" assay_endpoint=ED50 reading_qualifier== measured_value=16
